- Test system: Renilla luciferase RNA
- procedure_details: Barcoded aptazyme variant library screen: un-cleaved Renilla luciferase RNA by barcode read counts, HEK293-T cells
- Type: cell-based
- stated_conditions: un-cleaved Renilla luciferase RNA by barcode read counts; with 1 mM theophylline (ON) over without theophylline (OFF); HEK293-T cells; triplicate
Kindly state Fold change in RNA expression between the ON state and the OFF state for each of the entries shown.
In your answer, state the number alone without any accompanying words.

Fold change in RNA expression between the ON state and the OFF state recorded for this molecule, RA450 (nucleic acid, expressed or natural sequence) DNA: GCGCGTCCTGGATTCGCGGAAACGCGTACATCCAGCTGACGAGTCCCAAATAGGACGAAACCCGGAATACCAGCATCGTCTTGATGCCCTTGGAAGTCCGGGCGC , is 0.5

Fold change in RNA expression between the ON state and the OFF state recorded for this molecule, RA347 (nucleic acid, expressed or natural sequence) DNA: GCGCGTCCTGGATTCGCGGAAACGCAGAATACCAGCATCGTCTTGATGCCCTTGGAAGTCTGTACATCCAGCTGACGAGTCCCAAATAGGACGAAACGCGC , is 0.9
